- Tested on: U2OS
- experimentalProtocol: Multiplex assay against U2OS
- Assay type: toxicity, cell-based
- experimentalConditions: human, 48 h, 1 µM, compound concentration 1 uM, replicate 2
observationType: Population Membrane Permeable-Phenotype (%)
A number alone suffices; assume %.

CNc1nc(NCc2ccc(NS(C)(=O)=O)cc2Cl)cc(-c2ccccn2)n1
2

Value of measured Population Membrane Permeable-Phenotype (%) for the entry CN1CCC[C@@H]1CCO[C@](C)(c1ccccc1)c1ccc(Cl)cc1.O=C(O)/C=C/C(=O)O [CLEMASTINE FUMARATE] : 5

Value of measured Population Membrane Permeable-Phenotype (%) for the entry CN(C)C(=O)N[C@H]1CC[C@H](CCN2CCN(c3cccc(Cl)c3Cl)CC2)CC1.Cl [CARIPRAZINE HYDROCHLORIDE] : 9

Value of measured Population Membrane Permeable-Phenotype (%) for the entry CN1CCN(c2ccc(OC(F)(F)F)c(Nc3ncc4c(n3)-c3c(c(C(N)=O)nn3CCO)CC4)c2)CC1 : 24
